inhibition listing for selected compounds.
- PROCEDURE_TEXT: PhoP regulon inhibitors, Salmonella typhi PhoP promoter GFP reporter, confirmatory (AID 1850);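 further: 0% = induced wells with vehicle and 100% = uninduced wells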
- COND: fluorescence, 4 h, at 50 µM, active compounds read high
In all, about 310,000 compounds went through this assay and about 1,000 (0.32%) were called active. These entries were drawn from the full list. Results with a measured potency or affinity are listed apart.
Unit % implied. Number only.

Prompt: Find the recorded inhibition belonging to CCN(c1ccccc1)S(=O)(=O)c1csc(C(N)=O)c1 and report it.
Response: 1.57

Prompt: I am curious: what inhibition value has been reported for CN(C)c1ccc(/C=C/C=C/c2sc3ccccc3[n+]2C)cc1 ?
Response: 14.1

Prompt: Give its inhibition value. Item: CCN1/C(=C/C=C/C=C/C=C/c2sc3ccccc3[n+]2CC)Sc2ccccc21
Response: 5.61

Prompt: Fill in: inhibition of CC[n+]1c(/C=C/Nc2ccccc2)sc2ccccc21 is ___
Response: 11.1

Prompt: If you can, please state the reported inhibition value of COc1ccc(NC(=S)NC(C)C(c2ccccc2)N2CCOCC2)cc1 (stereo unspecified) .
Response: -8.71

Prompt: For the compound CC[n+]1c(/C=C/C=C/N(C(C)=O)c2ccccc2)sc2ccccc21 , what inhibition is on record?
Response: -299

* * *

- PROCEDURE_TEXT: PhoP regulon inhibitors, Salmonella typhi PhoP promoter GFP reporter, confirmatory (AID 1850);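 further: 0% = induced wells with vehicle and 100% = uninduced wells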
- COND: fluorescence, 4 h, at 50 µM, active compounds read high
Hit rate of the full screen: of about 310,000 compounds, about 1,000 (0.32%) were called active. The list is a sample of the results. Results with a measured potency or affinity are listed apart.
Item-by-item account of inhibition
Hi! Could you send only the number? It should be in %, unit omitted.

{"COMPOUND": "COCCN(C(=S)Nc1cc(C)cc(C)c1)C(C)c1cccnc1 (centres undefined)", "inhibition / %": -6.47}
{"COMPOUND": "COc1cccc(-c2nc(N)nc(SC)c2C#N)c1", "inhibition / %": 5.06}
{"COMPOUND": "COC(=O)c1cccc(N(CC(=O)NC2CCCCC2)C(=O)CNC(=O)c2cccs2)c1", "inhibition / %": 7.52}
{"COMPOUND": "CCCCNC(=O)O[C@@H]1C[C@H]2CCC(=O)N3CC[C@@H](C1)[C@@H]23", "inhibition / %": 4.97}
{"COMPOUND": "CCN(CC)C(=O)c1sc2nc(N3CCOCC3)c3c(c2c1N)CCCC3", "inhibition / %": 3.42}

Prompt: Suppose we examine the compound Cn1c(=O)oc2cc(S(=O)(=O)NCc3ccccn3)ccc21 ; what inhibition value has been reported?
Response: 0.2

Prompt: State the recorded inhibition for this entry: COC(=O)CC1=C(C(=O)OC)C(c2ccc3c(c2Cl)OCO3)C(C#N)=C(N)O1 (centres undefined)
Response: -2.85

* * *

- PROCEDURE_TEXT: PhoP regulon inhibitors, Salmonella typhi PhoP promoter GFP reporter, confirmatory (AID 1850);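 further: 0% = induced wells with vehicle and 100% = uninduced wells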
- COND: fluorescence, 4 h, at 50 µM, active compounds read high
The whole screen tested about 310,000 compounds, of which about 1,000 (0.32%) were called active. Not all results are given here. Results with a measured potency or affinity are listed apart.
inhibition overview
Your answer is read as %, so omit the unit and give the number.

Reference set (5 entries):
{"COMPOUND": "COc1ccc(Br)c(C(=O)NC2CCCC2)c1", "READOUT_TYPE": "inhibition", "RESULT": 2.12}
{"COMPOUND": "CCOc1ccc(NC2=NCCCS2)cc1", "READOUT_TYPE": "inhibition", "RESULT": -2.96}
{"COMPOUND": "O=C(Nc1ccncc1)Nc1ccc(F)c(Cl)c1", "READOUT_TYPE": "inhibition", "RESULT": 14.2}
{"COMPOUND": "NC(=O)C1CCN(C(=O)/C=C/c2cc(Br)ccc2F)CC1", "READOUT_TYPE": "inhibition", "RESULT": -0.48}
{"COMPOUND": "CCc1ccc(NC(=O)Nc2cnccn2)cc1", "READOUT_TYPE": "inhibition", "RESULT": -5.86}

Prompt: # query: inhibition of entry CCc1ccc(NC(=S)N(CCCN2CCN(C)CC2)Cc2cccs2)cc1
Response: 0.49

Prompt: I'd like to know its inhibition. The compound in question is CCn1c2nc(SCCN3CCOCC3)nnc2c2cc(C)cc(C)c21
Response: -16.9

Prompt: What inhibition value was documented for this compound, S=C(NCc1ccc(Cl)cc1)Nc1ccccc1 ?
Response: -8.41

Prompt: Dear colleague, I am looking for the recorded inhibition of the following compound: CCCC(=O)NC(c1ccco1)c1cc(Cl)c2cccnc2c1O (centres undefined)
Response: -13.5

Prompt: Query (compound): Cc1ccc(CNC(=O)CSc2ncc(C(=O)Nc3ccccc3)c(=O)n2C)cc1 ; field requested: inhibition
Response: 6.4

* * *

- PROCEDURE_TEXT: PhoP regulon inhibitors, Salmonella typhi PhoP promoter GFP reporter, confirmatory (AID 1850);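 further: 0% = induced wells with vehicle and 100% = uninduced wells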
- COND: fluorescence, 4 h, at 50 µM, active compounds read high
Hit rate of the full screen: of about 310,000 compounds, about 1,000 (0.32%) were called active. Not all results are given here. Measured potencies and affinities stand elsewhere.
READOUT_TYPE: inhibition (%)
Give your result in % as a bare value.

{"COMPOUND": "COc1ccc(CCNC(=O)c2ccc(OCC(=O)N3CCOCC3)c(OC)c2)cc1OC", "UNITS": "%", "inhibition": 2.3}
{"COMPOUND": "CN(C)c1ccc(C2C3C(=O)NC(=O)C3ON2c2ccc(Cl)cc2)cc1 (configuration not stated)", "UNITS": "%", "inhibition": 1.26}
{"COMPOUND": "NC(=S)NNC(=O)c1cccc(Br)c1", "UNITS": "%", "inhibition": -6.69}

Prompt: Field request: inhibition | item: O=C(NNC(=O)C1CCCCC1)c1ccc(Br)cc1
Response: -2.98

Prompt: Field request: inhibition | item: N#C/C(=C\c1ccc([N+](=O)[O-])o1)c1nc2ccccc2[nH]1
Response: 7.25

Prompt: Given O=C(NCCNS(=O)(=O)c1ccc(Cl)cc1)c1cc(OCC(F)(F)F)ccc1OCC(F)(F)F , state its recorded inhibition.
Response: 0.75

Prompt: So what does the record say about inhibition for O=C(Nc1csc(Cc2c(Cl)cccc2Cl)n1)NN1CCOCC1 ?
Response: -0.65

Prompt: // query inhibition value for entry Cc1ccc(NC(=O)c2ccc3snnc3c2)cc1
Response: -2.31

Prompt: inhibition lookup needed for CN(Cc1ccccc1)CC(O)COc1ccc(CNCc2cccnc2)cc1 (configuration not stated) , thanks.
Response: 6.07

* * *

- PROCEDURE_TEXT: PhoP regulon inhibitors, Salmonella typhi PhoP promoter GFP reporter, confirmatory (AID 1850);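 further: 0% = induced wells with vehicle and 100% = uninduced wells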
- COND: fluorescence, 4 h, at 50 µM, active compounds read high
Hit rate of the full screen: of about 310,000 compounds, about 1,000 (0.32%) were called active. A selection follows. Measured potencies and affinities stand elsewhere.
This section presents molecules with their documented inhibition values.
API: value field is a number in %; no unit string.

Example entries and their recorded answers appear below.
{"MOLECULE": "CS(=O)(=O)N1CCN(c2ccccc2NC(=S)NC(=O)c2cccs2)CC1", "UNITS": "%", "RESULT": -10.5}
{"MOLECULE": "COc1ccc(CNC(=O)CCNS(=O)(=O)c2ccc(Br)s2)cc1", "UNITS": "%", "RESULT": -1.05}

Prompt: Entry COc1ccc(NC2c3ccccc3C(=O)N2c2ccccn2)cc1 (configuration not stated) has what inhibition?
Response: 0.4

Prompt: What value of inhibition has been reported for the following molecule? CC[C@H](C)[C@@H](CNC)NC[C@@H](Cc1ccc(O)cc1)NCC(C)(C)C
Response: 4.52

Prompt: Requested field: inhibition. Item: Cc1ccc(Nc2nc(NCc3ccco3)c3ccccc3n2)cc1
Response: 5.88

Prompt: I would be grateful if you could share the reported inhibition for NS(=O)(=O)c1ccc(NC(=O)COC(=O)c2ccc([N+](=O)[O-])s2)cc1 .
Response: 9

* * *

Listed next: entries and their corresponding inhibition.
- PROCEDURE_TEXT: PhoP regulon inhibitors, Salmonella typhi PhoP promoter GFP reporter, confirmatory (AID 1850);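 further: 0% = induced wells with vehicle and 100% = uninduced wells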
- COND: fluorescence, 4 h, at 50 µM, active compounds read high
In all, about 310,000 compounds went through this assay and about 1,000 (0.32%) were called active. These entries were drawn from the full list. Potency and affinity values are given separately.

Please review the entries below; each comes with its answer.
{"COMPOUND": "Cn1c(N)c(C(C[N+](=O)[O-])c2ccccc2Cl)c(=O)n(C)c1=O (stereo not drawn)", "READOUT_TYPE": "inhibition", "RESULT": "16% (inactive)"}
{"COMPOUND": "CCOc1ncccc1C(=O)Nc1cccc(Cl)c1Cl", "READOUT_TYPE": "inhibition", "RESULT": "-6.65% (inactive)"}
{"COMPOUND": "COc1cc(/C=C/C(=O)Nc2ccncc2)cc(OC)c1OC", "READOUT_TYPE": "inhibition", "RESULT": "9.98% (inactive)"}

Prompt: # input compound: CCOc1cc(N2CCOCC2)c(OCC)cc1NC(=O)CC12CC3CC(CC(C3)C1)C2 ; wanted: its inhibition
Response: -0.45% (inactive)

Prompt: Quick one: inhibition of Brc1ccc(-c2cn3c(n2)CCc2ccc4cccnc4c2-3)cc1 ?
Response: 1.82% (inactive)

Prompt: Field request: inhibition | item: CC1CCC(C(C)C)C(OC(=O)Cn2c(-c3ccc(F)cc3)[n+](C)c3ccccc32)C1 (stereo not drawn)
Response: 9.13% (inactive)

Prompt: Sample COc1cc(C(C[N+](=O)[O-])c2c(N)n(C)c(=O)n(C)c2=O)ccc1O (stereo not drawn) — what was its inhibition?
Response: -9.41% (inactive)

Prompt: Fill in the blank: the reported inhibition of Cc1cccc(NC(=S)N(C)C)c1C is ____.
Response: 17.9% (inactive)
